Target: GOLGB1 Golgin subfamily B member 1 (Homo sapiens)
Construct: isoTOP-ABPP experiments performed in cell lysates (in vitro); endogenous in cells; host or cells: soluble proteome of human cancer cell lines (MDA-MB-231, Ramos, Jurkat)
Sequence (Q14789 whole entry): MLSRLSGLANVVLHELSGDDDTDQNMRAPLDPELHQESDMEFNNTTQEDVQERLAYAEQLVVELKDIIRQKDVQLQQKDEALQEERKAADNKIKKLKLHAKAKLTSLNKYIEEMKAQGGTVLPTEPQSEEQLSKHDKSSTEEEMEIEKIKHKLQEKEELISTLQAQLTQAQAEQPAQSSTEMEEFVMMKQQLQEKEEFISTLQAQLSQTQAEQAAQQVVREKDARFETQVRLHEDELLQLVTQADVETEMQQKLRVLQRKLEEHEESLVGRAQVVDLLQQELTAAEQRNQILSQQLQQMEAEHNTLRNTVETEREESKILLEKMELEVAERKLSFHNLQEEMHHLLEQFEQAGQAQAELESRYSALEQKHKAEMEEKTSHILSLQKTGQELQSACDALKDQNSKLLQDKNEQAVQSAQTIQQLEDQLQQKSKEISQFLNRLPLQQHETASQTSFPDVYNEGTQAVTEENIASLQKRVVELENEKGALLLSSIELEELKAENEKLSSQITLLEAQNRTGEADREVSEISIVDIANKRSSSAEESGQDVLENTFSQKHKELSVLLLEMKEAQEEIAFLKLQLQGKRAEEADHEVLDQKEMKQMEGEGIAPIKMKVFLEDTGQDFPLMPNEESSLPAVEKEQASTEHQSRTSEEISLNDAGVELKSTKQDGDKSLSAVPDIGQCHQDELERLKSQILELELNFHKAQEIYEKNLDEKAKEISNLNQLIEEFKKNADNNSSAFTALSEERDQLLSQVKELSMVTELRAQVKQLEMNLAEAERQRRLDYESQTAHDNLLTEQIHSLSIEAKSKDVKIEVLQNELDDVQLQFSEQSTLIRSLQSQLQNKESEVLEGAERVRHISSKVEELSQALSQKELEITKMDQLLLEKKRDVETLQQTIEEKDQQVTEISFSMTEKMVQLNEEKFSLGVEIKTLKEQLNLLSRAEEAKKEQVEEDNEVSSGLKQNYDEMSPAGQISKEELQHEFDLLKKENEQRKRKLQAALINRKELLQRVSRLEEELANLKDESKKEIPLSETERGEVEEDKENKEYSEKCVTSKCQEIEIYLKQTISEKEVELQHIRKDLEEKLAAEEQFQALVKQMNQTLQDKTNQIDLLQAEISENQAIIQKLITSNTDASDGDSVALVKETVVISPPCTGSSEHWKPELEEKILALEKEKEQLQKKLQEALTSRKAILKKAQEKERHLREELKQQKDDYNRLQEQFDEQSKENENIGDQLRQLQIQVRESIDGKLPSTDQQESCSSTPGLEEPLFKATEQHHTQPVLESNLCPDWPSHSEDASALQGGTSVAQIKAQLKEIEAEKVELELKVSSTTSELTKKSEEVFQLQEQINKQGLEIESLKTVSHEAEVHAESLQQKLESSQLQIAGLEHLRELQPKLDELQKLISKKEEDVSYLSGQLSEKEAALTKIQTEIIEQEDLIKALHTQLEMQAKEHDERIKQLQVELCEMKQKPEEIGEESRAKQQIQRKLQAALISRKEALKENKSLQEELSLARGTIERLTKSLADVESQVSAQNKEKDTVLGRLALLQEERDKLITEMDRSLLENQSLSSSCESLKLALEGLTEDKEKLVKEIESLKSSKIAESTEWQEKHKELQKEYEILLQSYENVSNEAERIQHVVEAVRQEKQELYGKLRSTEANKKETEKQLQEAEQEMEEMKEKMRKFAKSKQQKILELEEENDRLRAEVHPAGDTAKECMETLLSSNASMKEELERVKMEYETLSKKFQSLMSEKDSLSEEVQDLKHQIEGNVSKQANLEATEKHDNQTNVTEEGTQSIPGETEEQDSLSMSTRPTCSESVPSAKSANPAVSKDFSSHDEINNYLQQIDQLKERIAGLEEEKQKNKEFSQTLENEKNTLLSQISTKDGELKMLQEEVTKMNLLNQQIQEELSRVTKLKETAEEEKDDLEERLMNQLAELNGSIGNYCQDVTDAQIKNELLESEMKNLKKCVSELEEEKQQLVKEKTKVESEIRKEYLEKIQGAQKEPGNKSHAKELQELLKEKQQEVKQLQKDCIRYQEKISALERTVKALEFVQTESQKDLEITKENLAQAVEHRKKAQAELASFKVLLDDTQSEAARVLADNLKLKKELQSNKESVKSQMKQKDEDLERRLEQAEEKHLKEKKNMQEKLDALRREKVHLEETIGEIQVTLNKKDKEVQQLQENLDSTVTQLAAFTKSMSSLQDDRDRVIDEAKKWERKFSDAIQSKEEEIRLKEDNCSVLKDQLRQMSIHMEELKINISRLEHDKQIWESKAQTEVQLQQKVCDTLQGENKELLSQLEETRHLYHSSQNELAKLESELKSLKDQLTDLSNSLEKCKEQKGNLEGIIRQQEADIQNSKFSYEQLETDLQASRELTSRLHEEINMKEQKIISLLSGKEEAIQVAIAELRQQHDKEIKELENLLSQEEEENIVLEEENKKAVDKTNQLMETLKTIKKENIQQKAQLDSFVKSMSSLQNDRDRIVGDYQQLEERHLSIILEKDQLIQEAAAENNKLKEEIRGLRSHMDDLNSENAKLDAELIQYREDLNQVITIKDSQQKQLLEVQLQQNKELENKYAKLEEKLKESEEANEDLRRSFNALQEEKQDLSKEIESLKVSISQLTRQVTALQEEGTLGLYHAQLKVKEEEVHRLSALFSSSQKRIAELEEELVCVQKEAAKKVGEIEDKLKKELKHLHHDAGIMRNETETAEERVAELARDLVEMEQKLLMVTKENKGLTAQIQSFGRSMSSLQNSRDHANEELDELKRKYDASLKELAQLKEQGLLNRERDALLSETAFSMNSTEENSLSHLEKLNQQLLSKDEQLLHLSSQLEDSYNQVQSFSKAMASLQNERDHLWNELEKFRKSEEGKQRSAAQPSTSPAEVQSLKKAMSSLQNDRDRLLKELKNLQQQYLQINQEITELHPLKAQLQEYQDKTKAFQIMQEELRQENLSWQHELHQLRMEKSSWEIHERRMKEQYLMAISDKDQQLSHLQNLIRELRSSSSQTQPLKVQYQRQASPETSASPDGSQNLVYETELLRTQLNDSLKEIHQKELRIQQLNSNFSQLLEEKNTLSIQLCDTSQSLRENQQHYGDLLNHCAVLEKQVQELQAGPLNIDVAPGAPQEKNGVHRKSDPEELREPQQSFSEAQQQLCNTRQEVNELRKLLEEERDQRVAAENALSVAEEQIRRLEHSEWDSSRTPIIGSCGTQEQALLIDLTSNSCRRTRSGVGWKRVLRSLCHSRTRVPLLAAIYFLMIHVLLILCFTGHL
Assay: competitive isoTOP-ABPP
Type: binding
Conditions: 50 uM, in vitro, sol, 231
Description: In vitro covalent fragment treatment for isoTOP-ABPP. All compounds were made up as solutions in DMSO (100×) and were used at a final concentration of 50 μM for activated esters and 100 μM for guanidinylating agents. […] R value calculation and processing. The ratios of light and heavy MS1 peaks for each unique peptide were quantified with a CIMAGE software using default parameters (3 MS1 acquisitions per peak and signal to noise threshold set to 2.5). […]
metric: isoTOP-ABPP ratio (R) at liganded lysine Q14789_K103

Which measured isoTOP-ABPP ratio (R) at liganded lysine Q14789_K103 value corresponds to CC(C)(C)OC(=O)NCCCC(=O)Oc1ccc([N+](=O)[O-])cc1[N+](=O)[O-] ?
1.1

Which measured isoTOP-ABPP ratio (R) at liganded lysine Q14789_K103 value corresponds to O=C(CCc1coc2cc(F)ccc2c1=O)Oc1ccc([N+](=O)[O-])cc1[N+](=O)[O-] ?
0.9

Which measured isoTOP-ABPP ratio (R) at liganded lysine Q14789_K103 value corresponds to CC(=O)Oc1ccc([N+](=O)[O-])cc1[N+](=O)[O-] [fragment 43, 2,4-Dinitrophenyl acetate] ?
1.0

Which measured isoTOP-ABPP ratio (R) at liganded lysine Q14789_K103 value corresponds to O=C(CC12CC3CC(CC(C3)C1)C2)Oc1ccc([N+](=O)[O-])cc1[N+](=O)[O-] ?
0.9

Which measured isoTOP-ABPP ratio (R) at liganded lysine Q14789_K103 value corresponds to O=C(Oc1ccc([N+](=O)[O-])cc1[N+](=O)[O-])c1ccccc1Nc1cccc(C(F)(F)F)c1 ?
0.9

Which measured isoTOP-ABPP ratio (R) at liganded lysine Q14789_K103 value corresponds to O=C(Oc1ccc([N+](=O)[O-])cc1[N+](=O)[O-])C1CCN(C(=O)OCc2ccccc2)CC1 ?
0.9

Which measured isoTOP-ABPP ratio (R) at liganded lysine Q14789_K103 value corresponds to O=C(Oc1ccc([N+](=O)[O-])cc1[N+](=O)[O-])c1ccc(-c2ccccc2)cc1 ?
0.9

----------
For each record, write down the corresponding isoTOP-ABPP ratio (R) at liganded lysine P17858_K715.
Target: PFKL 6-phosphofructokinase, liver type (Homo sapiens, UniProt P17858)
Construct: isoTOP-ABPP experiments performed in cell lysates (in vitro); endogenous in cells; host or cells: soluble proteome of human cancer cell lines (MDA-MB-231; Ramos and Jurkat also prepared)
Sequence (P17858 1-780): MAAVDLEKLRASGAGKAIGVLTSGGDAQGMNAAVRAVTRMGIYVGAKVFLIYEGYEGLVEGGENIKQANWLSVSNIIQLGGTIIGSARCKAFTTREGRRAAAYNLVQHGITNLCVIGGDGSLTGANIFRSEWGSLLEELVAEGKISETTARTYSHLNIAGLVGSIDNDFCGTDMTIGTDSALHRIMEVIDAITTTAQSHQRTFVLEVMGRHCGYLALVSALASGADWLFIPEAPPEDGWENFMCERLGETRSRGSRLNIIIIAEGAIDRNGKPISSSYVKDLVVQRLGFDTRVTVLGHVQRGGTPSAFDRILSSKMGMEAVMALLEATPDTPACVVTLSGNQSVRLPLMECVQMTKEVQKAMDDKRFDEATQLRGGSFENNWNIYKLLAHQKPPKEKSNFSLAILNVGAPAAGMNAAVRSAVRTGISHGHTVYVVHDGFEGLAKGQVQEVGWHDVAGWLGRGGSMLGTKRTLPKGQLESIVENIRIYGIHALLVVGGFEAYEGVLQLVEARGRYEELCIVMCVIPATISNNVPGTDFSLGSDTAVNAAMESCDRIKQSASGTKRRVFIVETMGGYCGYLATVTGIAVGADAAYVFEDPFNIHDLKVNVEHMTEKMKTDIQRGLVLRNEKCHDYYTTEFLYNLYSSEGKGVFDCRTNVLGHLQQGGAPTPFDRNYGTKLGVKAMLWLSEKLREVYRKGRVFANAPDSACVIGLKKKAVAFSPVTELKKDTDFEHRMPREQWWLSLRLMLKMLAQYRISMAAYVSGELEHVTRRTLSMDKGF
Assay: competitive isoTOP-ABPP
Assay type: binding
Details: 50 uM, in vitro, sol, 231

Which measured isoTOP-ABPP ratio (R) at liganded lysine P17858_K715 value corresponds to CC(C)(C)OC(=O)NCCCC(=O)Oc1ccc([N+](=O)[O-])cc1[N+](=O)[O-] ?
2.0

Which measured isoTOP-ABPP ratio (R) at liganded lysine P17858_K715 value corresponds to O=C(Oc1ccc([N+](=O)[O-])cc1[N+](=O)[O-])C(c1ccccc1)(c1ccccc1)c1ccccc1 [fragment 42, 2,4-Dinitrophenyl 2,2,2-triphenylacetate] ?
0.9

Which measured isoTOP-ABPP ratio (R) at liganded lysine P17858_K715 value corresponds to O=C(Oc1ccc([N+](=O)[O-])cc1[N+](=O)[O-])C1CCN(C(=O)OCc2ccccc2)CC1 ?
1.3

----------
For each record, write down the corresponding isoTOP-ABPP reactivity ratio at lysine O14879_K148.
Molecular target: IFIT3 Interferon-induced protein with tetratricopeptide (Homo sapiens, UniProt O14879)
Construct: isoTOP-ABPP experiments performed in cell lysates (in vitro); endogenous in cells; host or cells: MDA-MB-231 soluble lysate
Sequence (O14879 whole entry, the tested form may be a part): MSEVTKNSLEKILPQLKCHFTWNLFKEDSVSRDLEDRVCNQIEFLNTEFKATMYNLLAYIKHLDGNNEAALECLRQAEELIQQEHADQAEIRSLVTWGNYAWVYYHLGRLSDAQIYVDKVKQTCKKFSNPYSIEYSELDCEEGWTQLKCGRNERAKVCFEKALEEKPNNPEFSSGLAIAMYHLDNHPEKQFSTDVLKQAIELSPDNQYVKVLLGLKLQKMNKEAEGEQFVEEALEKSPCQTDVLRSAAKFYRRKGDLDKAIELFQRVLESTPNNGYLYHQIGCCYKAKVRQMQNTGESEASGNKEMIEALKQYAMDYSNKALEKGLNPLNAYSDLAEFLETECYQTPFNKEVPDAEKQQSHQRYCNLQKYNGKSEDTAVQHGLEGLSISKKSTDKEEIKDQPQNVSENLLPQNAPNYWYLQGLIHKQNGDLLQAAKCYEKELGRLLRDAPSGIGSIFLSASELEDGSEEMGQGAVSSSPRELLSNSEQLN
Assay: competitive isoTOP-ABPP
Assay type: binding
Details: 50 uM, 231 sol, in vitro
Keep the answer to the number alone.

API: value(readout= isoTOP-ABPP reactivity ratio at lysine O14879_K148, system= IFIT3 Interferon-induced protein with tetratricopeptide (Homo sapiens, UniProt O14879), query= O=C(CCc1coc2cc(F)ccc2c1=O)Oc1c(F)c(F)c(F)c(F)c1F [fragment 26] )
1.4

API: value(readout= isoTOP-ABPP reactivity ratio at lysine O14879_K148, system= IFIT3 Interferon-induced protein with tetratricopeptide (Homo sapiens, UniProt O14879), query= O=C(Oc1c(F)c(F)c(F)c(F)c1F)C1CCN(C(=O)OCc2ccccc2)CC1 [fragment 24] )
1.3

API: value(readout= isoTOP-ABPP reactivity ratio at lysine O14879_K148, system= IFIT3 Interferon-induced protein with tetratricopeptide (Homo sapiens, UniProt O14879), query= O=C(Oc1c(F)c(F)c(F)c(F)c1F)c1ccc2ccccc2n1 [fragment 25] )
1.9

API: value(readout= isoTOP-ABPP reactivity ratio at lysine O14879_K148, system= IFIT3 Interferon-induced protein with tetratricopeptide (Homo sapiens, UniProt O14879), query= O=C(CN1C(=O)c2ccccc2C1=O)Oc1c(F)c(F)c(F)c(F)c1F [fragment 27] )
0.9

API: value(readout= isoTOP-ABPP reactivity ratio at lysine O14879_K148, system= IFIT3 Interferon-induced protein with tetratricopeptide (Homo sapiens, UniProt O14879), query= CCn1cc(C(=O)Oc2c(F)c(F)c(F)c(F)c2F)c(=O)c2ccc(C)nc21 [fragment 28] )
1.0

API: value(readout= isoTOP-ABPP reactivity ratio at lysine O14879_K148, system= IFIT3 Interferon-induced protein with tetratricopeptide (Homo sapiens, UniProt O14879), query= O=C(CCc1cn(-c2ccccc2)nc1-c1ccccc1)Oc1ccc([N+](=O)[O-])cc1[N+](=O)[O-] [fragment 29] )
4.1

----------
Molecular target: DYNC1H1 Cytoplasmic dynein 1 heavy chain 1 (Homo sapiens, UniProt Q14204)
Construct: isoTOP-ABPP experiments performed in cell lysates (in vitro); endogenous in cells; host or cells: soluble proteome of human cancer cell lines (MDA-MB-231, Ramos, Jurkat)
Assay: competitive isoTOP-ABPP
Assay type: binding
Settings: 50 uM, 231 sol, in vitro
For each record, write down the corresponding isoTOP-ABPP reactivity ratio at lysine Q14204_K1649.
Keep the answer to the number alone.

Which measured isoTOP-ABPP reactivity ratio at lysine Q14204_K1649 value corresponds to O=C(CCc1cn(-c2ccccc2)nc1-c1ccccc1)Oc1ccc([N+](=O)[O-])cc1[N+](=O)[O-] ?
1.1

Which measured isoTOP-ABPP reactivity ratio at lysine Q14204_K1649 value corresponds to O=C(Oc1c(F)c(F)c(F)c(F)c1F)C1CCN(C(=O)OCc2ccccc2)CC1 ?
1.3

Which measured isoTOP-ABPP reactivity ratio at lysine Q14204_K1649 value corresponds to O=C(Oc1c(F)c(F)c(F)c(F)c1F)c1ccc2ccccc2n1 ?
1.7

Which measured isoTOP-ABPP reactivity ratio at lysine Q14204_K1649 value corresponds to COc1cc(CCC(=O)Oc2ccc([N+](=O)[O-])cc2[N+](=O)[O-])cc(OC)c1OC ?
1.1

Which measured isoTOP-ABPP reactivity ratio at lysine Q14204_K1649 value corresponds to CCn1cc(C(=O)Oc2c(F)c(F)c(F)c(F)c2F)c(=O)c2ccc(C)nc21 ?
1.0

Which measured isoTOP-ABPP reactivity ratio at lysine Q14204_K1649 value corresponds to Cn1cc(CC(=O)Oc2ccc([N+](=O)[O-])cc2[N+](=O)[O-])c2ccccc21 ?
1.2

Which measured isoTOP-ABPP reactivity ratio at lysine Q14204_K1649 value corresponds to O=C(CN1C(=O)c2ccccc2C1=O)Oc1c(F)c(F)c(F)c(F)c1F ?
4.2
